Where do the numbers come from? From ChEMBL document CHEMBL4184156.

# Measurement Target: Virulence sensor histidine kinase PhoQ (Salmonella typhimurium (strain LT2 / SGSC1412 / ATCC 700720))
# Sequence (P0DM80 whole entry): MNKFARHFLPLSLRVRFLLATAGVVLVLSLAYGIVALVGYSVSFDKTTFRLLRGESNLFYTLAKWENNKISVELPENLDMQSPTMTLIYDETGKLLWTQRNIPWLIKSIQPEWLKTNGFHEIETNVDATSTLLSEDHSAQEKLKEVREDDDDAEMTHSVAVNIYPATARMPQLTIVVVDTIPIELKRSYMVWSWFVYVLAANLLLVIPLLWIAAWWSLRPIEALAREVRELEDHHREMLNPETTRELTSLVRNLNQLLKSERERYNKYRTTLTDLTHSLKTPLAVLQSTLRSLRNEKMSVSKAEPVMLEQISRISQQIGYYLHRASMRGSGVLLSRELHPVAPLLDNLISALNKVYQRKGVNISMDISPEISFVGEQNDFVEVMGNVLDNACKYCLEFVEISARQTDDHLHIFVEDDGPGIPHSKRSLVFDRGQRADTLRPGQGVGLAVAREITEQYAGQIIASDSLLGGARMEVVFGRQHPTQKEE
# Test Name: Inhibition of recombinant Salmonella typhimurium N-terminal His6-SUMO-tagged DHp-catalytic domain PhoQ (257 to 487 residues) autophosphorylation expressed in Escherichia coli BL21 (DE3) preincubated for 10 mins followed by [gamma-32P]-ATP addition after 30 mins by phosphotransferase dot blot assay
Measured Endpoint: IC50 (µM)

>>> print(df.to_string())
                           molecular_string  result
0  Cc1[nH]nc(-c2cc(Cl)c(O)cc2O)c1-c1ccc2c(c1)OCCO2     270
1  COc1ccc(-c2c(-c3cc(Cl)c(O)cc3O)n[nH]c2C)cc1     238
2  CCc1cc(-c2n[nH]c(C)c2-c2ccc3c(c2)OCCO3)c(O)cc1O     261
